target: Human immunodeficiency virus type 1 integrase (Human immunodeficiency virus 1); test: Inhibition of HIV1 integrase using U5A/U5B double-stranded DNA as substrate by ELISA
Sequence (Q7ZJM1 whole entry): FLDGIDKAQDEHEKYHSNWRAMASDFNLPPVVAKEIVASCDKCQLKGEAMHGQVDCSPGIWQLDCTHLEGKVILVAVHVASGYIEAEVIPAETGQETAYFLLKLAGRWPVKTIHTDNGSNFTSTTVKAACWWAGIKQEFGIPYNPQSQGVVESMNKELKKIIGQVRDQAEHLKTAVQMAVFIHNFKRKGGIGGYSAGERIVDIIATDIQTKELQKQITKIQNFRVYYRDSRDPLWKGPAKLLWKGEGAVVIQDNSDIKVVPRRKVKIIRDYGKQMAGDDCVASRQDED
Measurement type: pIC50
Lab note: report pIC50 as minus log10 of the concentration in molar units, number only.

[ask] Request the reported pIC50 associated with O=C(O)C(O)C(O)(Cc1ccc(O)c(O)c1)C(=O)O (racemic)
[reply] 6.60

====

experiment: Cytotoxicity against human MT4 cells by MTT assay; format: cell-based
Measurement type: CC50
Respond with the figure and its unit, in that order.

[ask] May I ask what CC50 has been recorded for O=C(O)C(O)C(O)(Cc1ccc(O)c(O)c1)C(=O)O (racemic) ?
[reply] 22 µM
